target: HLA-A*11:01
method_summary: IEDB peptide-MHC binding, purified MHC/competitive/radioactivity; filed as Kd, often an IC50 or EC50 that approximates it; bounds were set here for any values at or beyond the usual limits of such assays
cond: source organism: Dengue virus 2 Peru/IQT2913/1996
quantity: Kd (nM)
Give the number; nM is assumed, so skip it.

Query string: I have this sequence here, TTFITPMLR , and I need its recorded Kd.
Result string: 84.4

###

target: HLA-B*40:01
method_summary: IEDB peptide-MHC binding, purified MHC/direct/fluorescence; filed as Kd, often an IC50 or EC50 that approximates it; bounds were set here for any values at or beyond the usual limits of such assays
cond: source organism: Homo sapiens
quantity: pKd
Worth noting: pKd values are minus log10 of concentrations stated in mol/L.

Query string: For HLA-B*40:01, provide pKd of EVIPYTPAM please.
Result string: 4.88
